These data points were gathered from patent US5294716A.

target.of.assay: AII receptors (guinea pig adrenal gland cell surface membranes) (Cavia porcellus, UniProt Q9WV26)
Construct: from tissue; host or cells: guinea pig adrenal gland, cell surface membrane fraction
Sequence (Q9WV26 1-359): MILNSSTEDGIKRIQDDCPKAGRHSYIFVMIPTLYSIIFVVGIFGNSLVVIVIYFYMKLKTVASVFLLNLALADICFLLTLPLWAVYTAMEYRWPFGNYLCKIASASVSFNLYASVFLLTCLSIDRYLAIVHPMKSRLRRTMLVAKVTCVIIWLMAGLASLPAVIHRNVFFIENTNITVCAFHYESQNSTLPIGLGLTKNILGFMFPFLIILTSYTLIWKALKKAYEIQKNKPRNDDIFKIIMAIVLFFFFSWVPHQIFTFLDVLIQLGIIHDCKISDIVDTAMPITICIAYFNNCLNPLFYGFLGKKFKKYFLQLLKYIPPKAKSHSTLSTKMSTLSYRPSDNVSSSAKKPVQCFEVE
protocol.text: Test A: displacement of radiolabelled AII binding to cell surface membrane fraction (guinea pig adrenal gland)
reported.conditions: average, read-out: IC50 (concentration for 50% displacement of radiolabelled AII binding), average
assay.metric: pIC50
// returns pIC50 (minus log10 of molar concentration), number only

Please give the measured pIC50 for this compound: Cc1cc(OCc2ccc(-c3ccccc3-c3nnn[nH]3)cc2)c2ccccc2n1.Cl [hydrochloride]
7.77
